- System: Klebsiella pneumoniae
- assay-name: Antibacterial activity against multidrug resistant Klebsiella pneumoniae ATCC43816 assessed as inhibition of bacterial growth incubated for 24 hrs in M9-MOPS medium by twofold serial dilution method
- Type: functional
Please go through the items and note down their MIC.
A number alone suffices; assume µM.

Short answer please: MIC, Klebsiella pneumoniae, entry NCc1ccc(-c2ccc(N3C[C@H](CO)OC3=O)cc2F)cc1O
100

Short answer please: MIC, Klebsiella pneumoniae, entry NCc1ccc(-c2ccc(N3C[C@H](CO)OC3=O)cc2F)cc1
200

Short answer please: MIC, Klebsiella pneumoniae, entry O=C1O[C@@H](CO)CN1c1ccc(-c2ccncc2)c(F)c1
200
